# TEST TARGET: T1, MUC1 on MUC1+ human cancer cell lines and tumor tissue (abnormal, e.g. hypoglycosylated, tumor MUC1) (human, UniProt P15941 24-1255)
# T1 construct: the MUC1 of each cell line or tissue (number of repeats, glycoform) is not specified; The cell line or tissue is named under assay; also called MUC1 on HPAF, MCF-7, BT-20, SKBR-3, PANC-1, MS+MUC1 cells; MUC1 on colon and pancreatic tumor samples
# TEST NAME: flow cytometry, HPAF cells
Recorded percentage of APC+ stained cells for the following binders
Just the number please, in %, no unit attached.

Known results for binders:
{"columns": ["BINDER", "RESULT UNIT", "RESULT NUMBER"],
 "data": [
  ["M7 (antibody, human IgG1, kappa, V domains shown, Human IgG) VH: EVQLVESGGGLVQPGGSLRLSCAASGFTVSSNYMSWVRQAPGKGLEWVSVIYSGGSTYYADSVKGRFTISRDNSKNTLYLQMNSLRAEDTAVYYCARGSTNTYYYDSSGHPWGQGTMVTVSS VL: DIVMTQSPLSLPATPGEPASISCRSSQSLLHSNGYTYLDWYLQKPGQSPQVLIYLASNRASGVPDRFSGSGSGTNFTLKISRVEAEDVGLFYCMQALQTPQTFGQGTKLEIKR", "%", 51.5],
  ["M20 (antibody, human IgG1, kappa, V domains shown, Human IgG) VH: EVQLVESGGGLVQPGGSLRLSCAASGFTFSSYWMHWVRQAPGKGLVWVSHINSDGSSTSYADSVKGRFTISRDNAKNTLYLQMNSLRAEDTAVYYCARELADWGQGTLVTVSS VL: DVVMTQSPLSLPVTLGQPASISCRSSQSLVYSDGNTYLNWFQQRPGQSPRRLIYQVSNRDSGVPDRFSGSGSGTDFTLKIGRVEAEDVGVYFCMQGTHWPWTFGQGTKVEIKR", "%", 4.36],
  ["M22 (antibody, human IgG1, kappa, V domains shown, Human IgG) VH: EVQLVESGGGLVQPGGSLRLSCAASGFTVSSNYMSWVRQAPGKGLEWVSVIYSGGTTYYADSVKGRFTISRHNSKNTLYLQMNSLRAEDTAVYYCARDHDPDYGGYYMDVWGKGTTVTVSS VL: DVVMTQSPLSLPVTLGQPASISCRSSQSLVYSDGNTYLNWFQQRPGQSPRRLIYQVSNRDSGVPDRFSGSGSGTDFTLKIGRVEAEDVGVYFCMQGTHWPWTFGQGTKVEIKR", "%", 2.99]
]}

Now for another entry.
[in] // lookup percentage of APC+ stained cells for M21 (antibody, human IgG1, kappa, V domains shown, Human IgG) VH: EVQLVESGGGLVQPGGSLRLSCAASGFTVSSNYMSWVRQAPGKGLEWVSVIYSGGSTYYADSVKGRFTISRDNSKNTLYLQMNSLRAEDTAVYYCARDQEHYFDGSGYYVDYWGQGTLVTVSS VL: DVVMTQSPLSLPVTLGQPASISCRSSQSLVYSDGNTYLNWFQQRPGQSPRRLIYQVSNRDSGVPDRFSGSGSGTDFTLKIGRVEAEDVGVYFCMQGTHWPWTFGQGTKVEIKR
[out] 2.6
